All figures here come from patent US4232013A.

System: granuloma formation
Experiment: cotton granuloma assay, topical anti-inflammatory activity
Format: in vivo, rat (adult female albino, Sprague-Dawley)
Settings: (**) in comparison with Dexamethasone 21-acetate, 20-2-0.2 mcg/cotton pellet, 7 days
ENDPOINT: Anti-inflammatory activity (**)

// worked examples, Anti-inflammatory activity (**) included
COMPOUND: CC(=O)OCC(=O)[C@@]12NN=C[C@@H]1C[C@H]1[C@@H]3CCC4=CC(=O)C=C[C@]4(C)[C@@]3(F)[C@@H](O)C[C@@]12C
Anti-inflammatory activity (**): > 20
//
COMPOUND: CC(=O)OCC(=O)[C@@]1(O)[C@H](C)C[C@H]2[C@@H]3CCC4=CC(=O)C=C[C@]4(C)[C@@]3(F)[C@@H](O)C[C@@]21C [Dexamethasone 21-acetate, reference compound]
Anti-inflammatory activity (**): 1
//
COMPOUND: CC(=O)OCC(=O)[C@@]12N=NC[C@@H]1C[C@H]1[C@@H]3CCC4=CC(=O)C=C[C@]4(C)[C@@]3(F)[C@@H](O)C[C@@]12C
Anti-inflammatory activity (**): ≥ 20

Lookup: Find Anti-inflammatory activity (**) (granuloma formation) for the entry CC(=O)OCC(=O)[C@@]12NN=C[C@@H]1C[C@H]1[C@@H]3C[C@H](F)C4=CC(=O)C=C[C@]4(C)[C@@]3(F)[C@@H](O)C[C@@]12C
Found: > 20

Lookup: Find Anti-inflammatory activity (**) (granuloma formation) for the entry CC(=O)OCC(=O)[C@@]12N=NC[C@@H]1C[C@H]1[C@@H]3C[C@H](F)C4=CC(=O)C=C[C@]4(C)[C@@]3(F)[C@@H](O)C[C@@]12C
Found: > 20

Lookup: Find Anti-inflammatory activity (**) (granuloma formation) for the entry CC1(C)O[C@@H]2C[C@H]3[C@@H]4C[C@H](F)C5=CC(=O)C=C[C@]5(C)[C@@]4(F)[C@@H](O)C[C@]3(C)[C@]2(C(=O)CO)O1 [Fluocinolone acetonide, reference compound]
Found: 2
